# TARGET ENTITY: CB1 (mutant) (Homo sapiens, UniProt P21554)
# Sequence (P21554 1-417, change not shown): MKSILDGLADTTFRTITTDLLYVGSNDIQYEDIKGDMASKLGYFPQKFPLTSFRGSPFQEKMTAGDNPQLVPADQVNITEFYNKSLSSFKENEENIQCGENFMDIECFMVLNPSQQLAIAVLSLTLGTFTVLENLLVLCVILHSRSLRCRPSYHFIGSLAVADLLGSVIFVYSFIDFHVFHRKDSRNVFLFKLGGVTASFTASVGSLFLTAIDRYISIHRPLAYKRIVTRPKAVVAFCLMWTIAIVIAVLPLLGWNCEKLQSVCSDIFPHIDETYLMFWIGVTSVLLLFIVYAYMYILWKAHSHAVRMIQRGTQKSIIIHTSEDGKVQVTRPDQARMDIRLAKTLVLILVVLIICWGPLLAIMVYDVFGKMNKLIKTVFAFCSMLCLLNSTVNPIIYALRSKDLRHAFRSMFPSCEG
# ASSAY: R-SAT functional receptor assay, CB1 (mutant, truncated after amino acid 417)
# Assay type: cell-based
# CONDITION DETAILS: Appendix A; R-SAT CB1; receptor form (mutant or wild-type) not stated; read-out: pIC50 (converted)
hey, just use y if measured IC50 is less than 30 nM, otherwise n

| COMPOUND | DISCRETE LABEL |
| --- | --- |
| O=C(NN1CCCCCC1)c1ccc2c(c1)N=C(c1cccc(Cl)c1)c1ccccc1S2 [drawing 721] | y |
| Cc1ccc(CNC(=O)c2ccc3c(c2)N=C(c2cccc(Cl)c2)c2ccccc2S3)o1 [drawing 623] | y |
| Cc1ccsc1C1=Nc2cc(C(=O)NC3CCCC3)ccc2Sc2ccccc21 [drawing 652] | n |
| O=C(NC1CCCC1)c1ccc2c(c1)N=C(c1ccccc1Cl)c1ccccc1S2 | n |
| O=C(NN1CCCCC1)c1ccc2c(c1)N=C(c1cccc(Cl)c1)c1ccccc1S2 [drawing 1127] | n |
| O=C(NCCc1ccccc1)c1ccc2c(c1)N=C(c1ccc(F)cc1)c1ccccc1S2 [drawing 839] | y |
| CC(C)CNC(=O)c1ccc2c(c1)N=C(c1cccc(F)c1)c1ccccc1S2 [drawing 629] | y |
| CCONC(=O)c1ccc2c(c1)N=C(c1sccc1C)c1ccccc1S2 | n |
| O=C(NCCc1ccccn1)c1ccc2c(c1)N=C(c1cccc(Cl)c1)c1ccccc1S2 [drawing 999] | y |

====

# Emax values compiled below
# TARGET ENTITY: CB1 (mutant) (Homo sapiens, UniProt P21554)
# ASSAY: R-SAT functional receptor assay, CB1 (mutant, truncated after amino acid 417)
# Assay type: cell-based
# CONDITION DETAILS: Appendix A; R-SAT CB1; receptor form not stated; relative to SR141716 (100%); read-out: % Inhibition

| COMPOUND | TARGET ENTITY | Emax [%] |
| --- | --- | --- |
| O=C(NC1CCCCC1)c1ccc2c(c1)N=C(c1ccc(Cl)cc1)c1ccccc1S2 [drawing 738] | CB1 (mutant) (Homo sapiens, UniProt P21554) | 96 |
| O=C(NCc1ccncc1)c1ccc2c(c1)N=C(c1cccc(F)c1)c1ccccc1S2 | CB1 (mutant) (Homo sapiens, UniProt P21554) | 95 |
| CCCC1=Nc2cc(C(=O)N3CCN(c4cccc(C(F)(F)F)c4)CC3)ccc2Sc2ccccc21 | CB1 (mutant) (Homo sapiens, UniProt P21554) | 91 |
| CCOCCNC(=O)c1ccc2c(c1)N=C(c1ccc(C(=O)OCC)cc1)c1ccccc1S2 | CB1 (mutant) (Homo sapiens, UniProt P21554) | 77 |
| CCCCNC(=O)c1ccc2c(c1)N=C(c1ccc(Cl)cc1)c1ccc(F)cc1S2 [drawing 985] | CB1 (mutant) (Homo sapiens, UniProt P21554) | 109 |

====

# TARGET ENTITY: CB1 (mutant) (Homo sapiens, UniProt P21554)
# ASSAY: R-SAT functional receptor assay, CB1 (mutant, truncated after amino acid 417)
# Assay type: cell-based
# CONDITION DETAILS: Appendix A; R-SAT CB1; receptor form (mutant or wild-type) not stated; read-out: pIC50 (converted)
Recorded IC50 by entry
ENDPOINT LABEL: IC50 (nM)

| COMPOUND | ENDPOINT LABEL | UNITS TEXT | REPORTED MEASUREMENT |
| --- | --- | --- | --- |
| CCOC(=O)N1CCC(NC(=O)c2ccc3c(c2)N=C(c2ccc(Cl)cc2)c2ccccc2S3)CC1 [drawing 676] | IC50 | nM | 63.1 |
| O=C(NN1CCCCC1)c1ccc2c(c1)N=C(c1ccccc1)c1ccccc1O2 | IC50 | nM | 158 |
| O=C(NC1CCCC1)c1ccc2c(c1)N=C(c1ccc(Cl)s1)c1ccccc1S2 [drawing 1139] | IC50 | nM | 39.8 |
| CCCNC(=O)c1ccc2c(c1)N=C(c1ccc(Cl)cc1)c1ccccc1S2 [drawing 799] | IC50 | nM | 10 |
| CCONC(=O)c1ccc2c(c1)N=C(c1ccc(Cl)cc1)c1ccccc1S2 | IC50 | nM | 63.1 |
| O=C(NCc1cccc(Cl)c1)c1ccc2c(c1)N=C(c1ccc(F)cc1)c1ccccc1S2 [drawing 701] | IC50 | nM | 7.94 |
| O=C(NCc1ccncc1)c1ccc2c(c1)N=C(N1CCCCC1)c1ccccc1S2 | IC50 | nM | 501 |
| CC(CNC(=O)c1ccc2c(c1)N=C(c1ccc(Cl)cc1)c1ccccc1S2)c1ccccc1 (stereo not drawn) [drawing 933] | IC50 | nM | 20 |
| O=C(NCCCc1ccccc1)c1ccc2c(c1)N=C(c1ccccc1F)c1ccccc1S2 [drawing 935] | IC50 | nM | 20 |
| CC(C)NC(=O)c1ccc2c(c1)N=C(c1ccc(Cl)cc1F)c1ccccc1S2 [drawing 664] | IC50 | nM | 63.1 |
| CCCCNC(=O)c1ccc2c(c1)N=C(c1ccc(Cl)cc1)c1ccccc1[S+]2[O-] (stereo not drawn) [drawing 666] | IC50 | nM | 63.1 |
| CCOC(=O)c1ccc(C2=Nc3cc(C(=O)NCc4ccncc4)ccc3Sc3ccccc32)cc1 | IC50 | nM | 501 |
| CCCNC(=O)c1ccc2c(c1)N=C(c1ccccc1Cl)c1ccccc1S2 | IC50 | nM | 79.4 |
| CCCCNC(=O)c1ccc2c(c1)N=C(c1ccc(Cl)s1)c1cc(F)ccc1S2 [drawing 873] | IC50 | nM | 15.8 |
| O=C(NCc1ccccn1)c1ccc2c(c1)N=C(c1ccc(F)cc1)c1ccccc1S2 | IC50 | nM | 63.1 |
| CCCCNC(=O)c1ccc2c(c1)N=C(c1ccc(Cl)s1)c1ccc(Cl)cc1S2 [drawing 1109] | IC50 | nM | 39.8 |
| O=C(NCc1ccccc1)c1ccc2c(c1)N=C(c1cccc(Cl)c1)c1ccccc1S2 [drawing 717] | IC50 | nM | 7.94 |
| O=C(NCc1ccccc1Cl)c1ccc2c(c1)N=C(c1cccc(Cl)c1)c1ccccc1S2 [drawing 955] | IC50 | nM | 20 |

====

Listed below: Emax values for each entry.
# TARGET ENTITY: CB1 (mutant) (Homo sapiens)
# ASSAY: R-SAT functional receptor assay, CB1 (mutant, truncated after amino acid 417)
# Type: cell-based
# CONDITION DETAILS: Appendix A; R-SAT CB1; receptor form not stated; relative to SR141716 (100%); read-out: % Inhibition

| COMPOUND | TARGET ENTITY | Emax (%) |
| --- | --- | --- |
| CCCC1=NC2=C(CCC(C(=O)NCCc3ccc(OCC)cc3)=C2)Sc2ccccc21 | CB1 (mutant) (Homo sapiens) | 102 |
| CCCCNC(=O)c1ccc2c(c1)N=C(c1ccc(Cl)cc1)c1cc(Cl)ccc1S2 [drawing 556] | CB1 (mutant) (Homo sapiens) | 112 |
| O=C(NN1CCCCC1)c1ccc2c(c1)N=C(c1ccc(Cl)c(Cl)c1)c1ccccc1S2 [drawing 989] | CB1 (mutant) (Homo sapiens) | 105 |
| CCCC1=Nc2cc(C(=O)NC)ccc2Sc2ccccc21 | CB1 (mutant) (Homo sapiens) | 119 |
| CON(C)C(=O)c1ccc2c(c1)N=C(c1ccc(Cl)c(Cl)c1)c1ccccc1S2 | CB1 (mutant) (Homo sapiens) | 0 |
| Cc1cccnc1C1=Nc2cc(C(=O)NCCC(C)C)ccc2Sc2ccccc21 | CB1 (mutant) (Homo sapiens) | 94 |
| O=C(NCc1ccc(Cl)cc1Cl)c1ccc2c(c1)N=C(c1ccc(F)cc1)c1ccccc1S2 [drawing 1057] | CB1 (mutant) (Homo sapiens) | 96 |
| O=C(NN1CCCCC1)c1ccc2c(c1)N=C(Nc1ccccc1)c1ccccc1S2 | CB1 (mutant) (Homo sapiens) | 92 |
| O=C(NCc1ccc(F)cc1)c1ccc2c(c1)N=C(c1ccccc1)c1ccccc1S2 [drawing 745] | CB1 (mutant) (Homo sapiens) | 108 |

====

# Tested on: NSA mice
# ASSAY: Hypothermia study (block of CP 55,940-induced hypothermia)
# Format: in vivo
# Set-up: unit not given here
# CONDITION DETAILS: 3 mg/kg
# Procedure: . […] Core body temperatures were then obtained at various time points following CP 55,940 administration. Core body temperature (to the nearest 0.1° C.) was obtained by rectal probe.

| MOLECULE | TARGET ENTITY | Hypothermia 3 mg/kg |
| --- | --- | --- |
| O=C(NCCc1cccnc1)c1ccc2c(c1)N=C(c1cccc(Cl)c1)c1ccccc1S2 [drawing 1643] | NSA mice | 41 |
| O=C(NCc1ccco1)c1ccc2c(c1)N=C(c1ccc(Cl)c(Cl)c1)c1ccccc1S2 [drawing 1567] | NSA mice | 54 |
| O=C(NCCc1cccnc1)c1ccc2c(c1)N=C(c1ccc(Cl)c(Cl)c1)c1ccccc1S2 [drawing 1569] | NSA mice | 41 |
| CCCCNC(=O)c1ccc2c(c1)N=C(c1cccc(F)c1)c1ccccc1S2 [drawing 1593] | NSA mice | 36 |
| CC(C)CNC(=O)c1ccc2c(c1)N=C(c1ccc(Cl)cn1)c1ccc(F)cc1S2 [drawing 1625] | NSA mice | 27 |
| CC(C)CCNC(=O)c1ccc2c(c1)N=C(c1cccc(F)c1)c1ccccc1S2 [drawing 1602] | NSA mice | 67 |
